Molecular target: nLucOGG1 in HeLa cells (Homo sapiens)
Construct: thermal shift read by NanoGlo luminescence
Assay: Cellular Thermal Shift Assay to measure compound affinity for nLucOGG1 in HeLa cells (CETSA DTm)
Format: cell-based
Details: 10 μM compound, 37° C. 60 min, Tm vs DMSO control
Value Type: ΔTm at 10 µM

Observed ΔTm at 10 µM on nLucOGG1 in HeLa cells (Homo sapiens) for COc1cc(NC(=O)[C@H]2CC[C@@H](N3Cc4c(C)cc(N5CC6(COC6)C5)cc4NC3=O)CC2)ccc1C , please. 8 to 10 °C

API: value(readout=ΔTm at 10 µM, system=nLucOGG1 in HeLa cells (Homo sapiens)) for record Cc1cc(NCCN(C)C)cc2c1CN([C@H]1CC[C@@H](C(=O)Nc3cc4ccccc4[nH]3)CC1)C2=O > 10 °C

Notebook: pull reported ΔTm at 10 µM for nLucOGG1 in HeLa cells (Homo sapiens), entry COc1ccc(NC(=O)[C@H]2CC[C@@H](N3Cc4c(C)cccc4C3=O)CC2)cc1C#N 6 to 8 °C

Checklist item: ΔTm at 10 µM tested on nLucOGG1 in HeLa cells (Homo sapiens), entry COc1ccc(NC(=O)[C@H]2CC[C@@H](N3Cc4c(C)ccc(OC)c4NC3=O)CC2)cc1Cl , value? 6 to 8 °C

###

Molecular target: nLucOGG1 in HeLa cells (Homo sapiens, UniProt O15527)
Construct: thermal shift read by NanoGlo luminescence
Sequence (O15527 whole entry): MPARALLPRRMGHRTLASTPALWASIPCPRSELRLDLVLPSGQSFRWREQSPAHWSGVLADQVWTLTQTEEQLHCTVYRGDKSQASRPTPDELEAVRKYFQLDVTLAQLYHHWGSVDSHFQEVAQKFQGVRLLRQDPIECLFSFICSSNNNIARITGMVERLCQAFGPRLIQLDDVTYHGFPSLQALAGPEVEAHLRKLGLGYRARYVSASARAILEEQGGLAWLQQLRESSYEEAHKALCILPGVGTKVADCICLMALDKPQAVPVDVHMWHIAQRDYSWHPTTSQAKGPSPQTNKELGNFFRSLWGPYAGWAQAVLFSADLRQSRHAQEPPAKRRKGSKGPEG
Experiment: Cellular Thermal Shift Assay to measure compound affinity for nLucOGG1 in HeLa cells (CETSA DTm)
Type: cell-based
Settings: 10 μM compound, 37° C. 60 min, Tm vs DMSO control
Kindly state ΔTm at 10 µM for each of the entries shown.

Reported ΔTm at 10 µM for COc1ccc(NC(=O)[C@H]2CC[C@@H](N3Cc4c(C)cc(NCCN(C)C)cc4NC3=O)CC2)cc1C#N : what is it? 8 to 10 °C

Record request: ΔTm at 10 µM value, item COc1cc(NC(=O)[C@H]2CC[C@@H](N3Cc4c(C)cc(-c5nnco5)cc4NC3=O)CC2)ccc1C 8 to 10 °C

Entry COc1cc(NC(=O)[C@H]2CC[C@@H](N3Cc4c(C)ccc(CN)c4NC3=O)CC2)ccc1C has what ΔTm at 10 µM? 8 to 10 °C

Give the measured ΔTm at 10 µM of COc1cc(NC(=O)[C@H]2CC[C@@H](N3Cc4c(C)ccc(P(C)(C)=O)c4NC3=O)CC2)ccc1C . 6 to 8 °C

Requested read-out: ΔTm at 10 µM. Entry: COc1ccc(NC(=O)[C@H]2CC[C@@H](N3Cc4c(C)cc(NCCN(C)C)cc4C3=O)CC2)cc1C > 10 °C

Would you mind telling me what ΔTm at 10 µM value was observed for COc1ccc(NC(=O)[C@H]2CC[C@@H](N3Cc4c(C)ccnc4NC3=O)CC2)cc1 ? 6 to 8 °C

Which value of ΔTm at 10 µM has been reported for COc1ccc(NC(=O)[C@H]2CC[C@@H](N3Cc4c(C)cc(NCCN(C)C)cc4C3=O)CC2)cc1C#N in the records? 8 to 10 °C

Returns the measured ΔTm at 10 µM for the input molecule. Input: COc1cc(NC(=O)[C@H]2CC[C@@H](N3Cc4c(C)ccnc4NC3=O)CC2)ccc1C 6 to 8 °C

I'd like to know its ΔTm at 10 µM. The molecule in question is COc1ccc(NC(=O)[C@H]2CC[C@@H](N3Cc4c(C)cccc4C3=O)CC2)cc1C 6 to 8 °C

Fill in the blank: the reported ΔTm at 10 µM of COc1cc(NC(=O)[C@H]2CC[C@@H](N3Cc4c(C)cc(CN)cc4NC3=O)CC2)ccc1C is ____. > 10 °C

Entry COc1cc(NC(=O)[C@H]2CC[C@@H](N3Cc4c(C)ccc(OC)c4NC3=O)CC2)ccc1C has what ΔTm at 10 µM? 6 to 8 °C

I'd like to know its ΔTm at 10 µM. The molecule in question is COc1cc(NC(=O)[C@H]2CC[C@@H](N3Cc4c(C)ccc(N5CC6(COC6)C5)c4NC3=O)CC2)ccc1C 6 to 8 °C

Endpoint output: ΔTm at 10 µM of COc1cc(NC(=O)[C@H]2CC[C@@H](N3Cc4c(C)ccc(C#N)c4NC3=O)CC2)ccc1C . Value? 8 to 10 °C

// query ΔTm at 10 µM value for entry COc1cc(NC(=O)[C@H]2CC[C@@H](N3Cc4c(C)cc(OCCN5CC(F)(F)C5)cc4C3=O)CC2)ccc1C 6 to 8 °C

Sample COc1cc(NC(=O)[C@H]2CC[C@@H](N3Cc4c(C)cnc(CNC(C)=O)c4NC3=O)CC2)ccc1C — what was its ΔTm at 10 µM? 8 to 10 °C

These entries and their values trace back to patent US20260317356A1.
